- target-under-test: FGFR4 (Homo sapiens)
- Construct: made in house; host or cells: E. coli (BL21-derived) infected with T7 phage
- Sequence (P22455 22-802): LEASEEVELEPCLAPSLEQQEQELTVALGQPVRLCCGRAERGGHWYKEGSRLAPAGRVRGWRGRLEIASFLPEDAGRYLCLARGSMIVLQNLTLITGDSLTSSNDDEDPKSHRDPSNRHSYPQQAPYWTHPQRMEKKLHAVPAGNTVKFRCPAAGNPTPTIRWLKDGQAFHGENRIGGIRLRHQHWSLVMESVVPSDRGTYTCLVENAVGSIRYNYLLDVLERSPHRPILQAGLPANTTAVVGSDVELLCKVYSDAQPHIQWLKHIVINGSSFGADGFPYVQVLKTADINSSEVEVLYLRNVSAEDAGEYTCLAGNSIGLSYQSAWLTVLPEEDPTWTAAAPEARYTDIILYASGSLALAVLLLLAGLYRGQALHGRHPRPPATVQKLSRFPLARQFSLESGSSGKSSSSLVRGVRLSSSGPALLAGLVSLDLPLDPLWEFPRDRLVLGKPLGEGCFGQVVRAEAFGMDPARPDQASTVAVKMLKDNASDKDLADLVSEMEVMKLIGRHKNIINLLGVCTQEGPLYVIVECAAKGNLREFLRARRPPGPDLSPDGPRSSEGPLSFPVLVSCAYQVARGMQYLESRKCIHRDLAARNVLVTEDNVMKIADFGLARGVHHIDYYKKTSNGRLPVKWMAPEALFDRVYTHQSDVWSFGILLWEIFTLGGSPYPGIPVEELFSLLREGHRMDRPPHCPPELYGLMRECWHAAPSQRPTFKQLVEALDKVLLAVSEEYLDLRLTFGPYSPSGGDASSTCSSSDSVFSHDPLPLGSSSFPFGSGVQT
- test-protocol: Kinase binding assay (Kd), kinase-tagged T7 phage, affinity beads, qPCR
- test-context: in vitro binding assay, 11-point 3-fold dilution series
measured-endpoint: Kd

C=CC(=O)N1CC(F)(C(=O)N2CCC(n3nnc(-c4cc(O[C@H](CO)c5ccccn5)c5c(C#N)cnn5c4)c3C)CC2)C1 (single isomer, unassigned) [Example 20]
0.1 to 100 nM

// next entry
q: Could you share which Kd value was measured for C=CC(=O)N1CCC2(CC1)CC(n1ncc(-c3cc(O[C@H](CO)c4ccccn4)c4c(C#N)cnn4c3)c1C)C2 [Example 8] ?
a: 0.1 to 100 nM

From: patent US20260209223A1
